Target: Fibroblast growth factor receptor 3 (Homo sapiens)
Conditions: Compound concentration 20.0 uM, Protein concentration 2.0 uM, Result type QC Liability
Description: Thermal Shift Assay. Domain: start/stop: P449-E759
Assay Metric: ΔTm (°C)
Quick reminder: number only, in °C, skip the unit.

Here's what some known entries look like.
O=C(O)C[C@H]1CC[C@H](c2ccc(NC(=O)c3nnc(Nc4ccc(F)c(F)c4)o3)cc2)CC1 : 0.79
Cc1cc(OC2CCS(=O)(=O)CC2)cc(C)c1-c1cccc(COc2ccc(CCC(=O)O)c(F)c2)c1 : 0.31
COc1cc(C)c(S(=O)(=O)N(C)CCC(=O)N[C@H]2CC[C@@H](N3CCC4CN(C)CC4C3)CC2)c(C)c1 (some centres undefined) : 1.1

Below: the item to evaluate.
Recorded ΔTm for O=C(Cc1ccccc1)Nc1nnc(N2CC[C@@H]3[C@H]2CN3c2cccnn2)s1 , please?
0.51
